- System: TO-3-N3-2 (biotin conjugate)
- protocolSummary: pull-down binding Z-score (relative to library population); higher = stronger binding
- measurementContext: RNA library: Library-2
Criterion: pull-down binding Z-score meeting or surpassing -0.4. Met: true (1). Not met: false (0).

Take a look at these entries with their results.
entrySequence: UAGGUGUUUUAAUGUCUAAUUUAGGCAUGCCUUCUUACUGUACUGGUUACAGAGAAGGCUAUUUGAACUCUA
groupLabel: true (1)
--
entrySequence: ACACUCUACGUGU
groupLabel: false (0)
--
entrySequence: GUGCAGAAUGAAUUCUCGUAACUACAUAGCACAAGUAGAUGUAGUUAACUUUAAUCUCAC
groupLabel: true (1)
--
entrySequence: GCAGCUAGUAAUAUGAGCCCAGUUGC [hsa-mir-153-2]
groupLabel: true (1)

Let's switch to this sequence now.
Tell me whether pull-down binding Z-score is at least -0.4 here: GUGGAAGUGCCCACUGGUUCCA [hsa-mir-194-2]
true (1)
